- study-system: Cst6 (UniProt P40535)
- Sequence (P40535 whole entry): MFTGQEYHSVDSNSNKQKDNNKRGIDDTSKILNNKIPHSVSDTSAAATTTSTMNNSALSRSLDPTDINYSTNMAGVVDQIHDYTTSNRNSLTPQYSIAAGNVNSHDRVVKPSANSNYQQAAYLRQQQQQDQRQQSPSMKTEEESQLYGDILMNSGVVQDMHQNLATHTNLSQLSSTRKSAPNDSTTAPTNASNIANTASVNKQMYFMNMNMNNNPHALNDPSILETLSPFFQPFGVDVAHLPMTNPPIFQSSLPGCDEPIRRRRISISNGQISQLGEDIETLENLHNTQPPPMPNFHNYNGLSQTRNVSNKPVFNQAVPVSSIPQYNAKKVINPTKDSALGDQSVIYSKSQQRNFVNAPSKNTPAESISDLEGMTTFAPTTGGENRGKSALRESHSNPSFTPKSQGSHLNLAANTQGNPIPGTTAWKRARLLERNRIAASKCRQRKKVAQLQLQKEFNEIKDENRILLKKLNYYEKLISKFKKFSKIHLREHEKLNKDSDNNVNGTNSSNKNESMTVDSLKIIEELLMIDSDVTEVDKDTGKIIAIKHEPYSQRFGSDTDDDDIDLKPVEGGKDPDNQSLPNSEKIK
- assay-text: PBM E-score (8-mer binding enrichment) (E-score (-0.5 to 0.5)); higher = stronger / more preferred TF binding
- measurement-setup: protein concentration: 200 nM; construct: GST-DNA-binding domain
Over roughly 33,000 sequences, “E-score (-0.5 to 0.5)” has its median near -0.016; the highest 2% begin near 0.31. Shown is part of a subset that was picked to be rich in the highest values.
Outcome: TRUE for PBM E-score of at least 0.3; FALSE for anything lower.

**Query** Item GCTCGTCA with PBM E-score of 0.3 or above?
**Result** FALSE

**Query** Item AATATAAT with PBM E-score of 0.3 or above?
**Result** FALSE

**Query** Item ATAATATA with PBM E-score of 0.3 or above?
**Result** TRUE

**Query** Item ACATAATA with PBM E-score of 0.3 or above?
**Result** TRUE

**Query** Item GCATAATA with PBM E-score of 0.3 or above?
**Result** FALSE
